Reported inhibition values are given for each entry in this list.
- target: UniProtKB P30547
- Sequence (P30547 whole entry): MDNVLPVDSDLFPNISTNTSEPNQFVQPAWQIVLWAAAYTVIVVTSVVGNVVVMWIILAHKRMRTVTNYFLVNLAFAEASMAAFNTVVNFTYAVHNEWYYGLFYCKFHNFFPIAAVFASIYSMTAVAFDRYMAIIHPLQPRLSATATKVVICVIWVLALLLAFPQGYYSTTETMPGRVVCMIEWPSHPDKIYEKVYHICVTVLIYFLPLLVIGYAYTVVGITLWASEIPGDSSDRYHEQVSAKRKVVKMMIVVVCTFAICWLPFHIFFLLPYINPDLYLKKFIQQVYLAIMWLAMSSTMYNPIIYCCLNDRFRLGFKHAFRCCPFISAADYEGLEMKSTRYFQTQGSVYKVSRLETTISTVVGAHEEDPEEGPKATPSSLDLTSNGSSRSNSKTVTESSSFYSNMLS
- runDescription: Inhibitory activity against Neurokinin 1 (NK1) receptor from guinea pig lung at a concentration of 1 ug/mL
metric: inhibition

givenSmiles | measuredResult
COc1ccc(S(=O)(=O)N2CO[C@](CCN3CCC(C(N)=O)(c4ccccc4)CC3)(c3ccc(Cl)c(Cl)c3)C2)cc1OC | 71%
COc1ccc(C(=O)N2CO[C@](CCN3CCC(C(N)=O)(c4ccccc4)CC3)(c3ccc(Cl)c(Cl)c3)C2)c(OC)c1 | 78%
COc1cc(OC)cc(C(=O)N2CO[C@](CCN3CCC(C(N)=O)(c4ccccc4)CC3)(c3ccc(Cl)c(Cl)c3)C2)c1 | 93%
COc1cc(C(=O)N2CO[C@](CCN3CCN(c4ncccn4)CC3)(c3ccc(Cl)c(Cl)c3)C2)cc(OC)c1OC | 100%
COc1cc(C(=O)N2CO[C@](CCN3CCC(n4c(O)nc5ccccc54)CC3)(c3ccc(Cl)c(Cl)c3)C2)cc(OC)c1OC | 100%
COc1ccccc1C(=O)N1CO[C@](CCN2CCC(C(N)=O)(c3ccccc3)CC2)(c2ccc(Cl)c(Cl)c2)C1 | 100%
COc1cc(C(=O)N2CO[C@](CCN3CCC(NC(=O)c4ccccc4)CC3)(c3ccc(Cl)c(Cl)c3)C2)cc(OC)c1OC | 89%
NC(=O)C1(c2ccccc2)CCN(CC[C@@]2(c3ccc(Cl)c(Cl)c3)CN(C(=O)c3cnc4ccccc4n3)CO2)CC1 | 38%
NC(=O)C1(c2ccccc2)CCN(CC[C@@]2(c3ccc(Cl)c(Cl)c3)CN(C(=O)c3cccs3)CO2)CC1 | 33%
COc1cc(C(=O)N2CO[C@](CCN3CCC(O)(c4ccccc4)CC3)(c3ccc(Cl)c(Cl)c3)C2)cc(OC)c1OC | 100%
COc1ccc(C(=O)N2CO[C@](CCN3CCC(C(N)=O)(c4ccccc4)CC3)(c3ccc(Cl)c(Cl)c3)C2)cc1OC | 93%

----------
Reported inhibition values are given for each entry in this list.
- target: UniProtKB P30547
- runDescription: Inhibitory activity against Neurokinin 1 (NK1) receptor from guinea pig lung at a concentration of 1 ug/mL

givenSmiles | inhibition
COc1cc(C(=O)N2CO[C@](CCN3CCC4(CC3)CN(S(C)(=O)=O)c3ccccc34)(c3ccc(Cl)c(Cl)c3)C2)cc(OC)c1OC | 98%
COc1cc(C(=O)N2CO[C@](CCN3CCC(C(=O)Nc4ccccc4)CC3)(c3ccc(Cl)c(Cl)c3)C2)cc(OC)c1OC | 44%
COc1cc(C(=O)N2CO[C@](CCN3CCC4(CC3)SCc3ccccc34)(c3ccc(Cl)c(Cl)c3)C2)cc(OC)c1OC | 100%
COc1cc(C(=O)N2CO[C@](CCN3CCC(O)(c4cccnc4)CC3)(c3ccc(Cl)c(Cl)c3)C2)cc(OC)c1OC | 100%
N#Cc1ccc(C(=O)N2CO[C@](CCN3CCC(C(N)=O)(c4ccccc4)CC3)(c3ccc(Cl)c(Cl)c3)C2)cc1 | 29%
COc1cccc(C(=O)N2CO[C@](CCN3CCC(C(N)=O)(c4ccccc4)CC3)(c3ccc(Cl)c(Cl)c3)C2)c1 | 100%
NC(=O)C1(c2ccccc2)CCN(CC[C@@]2(c3ccc(Cl)c(Cl)c3)CN(C(=O)c3ccc(Cl)cc3)CO2)CC1 | 50%
CC(C)Oc1cccc(CC(=O)N2CO[C@](CCN3CCC(C(N)=O)(c4ccccc4)CC3)(c3ccc(Cl)c(Cl)c3)C2)c1 | 59%
NC(=O)C1(c2ccccc2)CCN(CC[C@@]2(c3ccc(Cl)c(Cl)c3)CN(C(=O)c3cccnc3)CO2)CC1 | 38%
COc1cc(C(=O)N2CO[C@](CCN3CCC4(CC3)CN(Cc3ccccc3)C(=O)O4)(c3ccc(Cl)c(Cl)c3)C2)cc(OC)c1OC | 86%
COc1cc(C(=O)N2CO[C@](CCN3CCC(C(N)=O)(c4ccccn4)CC3)(c3ccc(Cl)c(Cl)c3)C2)cc(OC)c1OC | 95%
COc1cc(C(=O)N2CO[C@](CCN3CCC(O)(c4ccccn4)CC3)(c3ccc(Cl)c(Cl)c3)C2)cc(OC)c1OC | 100%
COc1cccc(OC)c1C(=O)N1CO[C@](CCN2CCC(C(N)=O)(c3ccccc3)CC2)(c2ccc(Cl)c(Cl)c2)C1 | 74%
NC(=O)C1(c2ccccc2)CCN(CC[C@@]2(c3ccc(Cl)c(Cl)c3)CN(C(=O)c3ccncc3)CO2)CC1 | 65%
COC(=O)c1ccc(C(=O)N2CO[C@](CCN3CCC(C(N)=O)(c4ccccc4)CC3)(c3ccc(Cl)c(Cl)c3)C2)cc1 | 36%
COc1cc(CC(=O)N2CO[C@](CCN3CCC(C(N)=O)(c4ccccc4)CC3)(c3ccc(Cl)c(Cl)c3)C2)cc(OC)c1OC | 87%
NC(=O)C1(c2ccccc2)CCN(CC[C@@]2(c3ccc(Cl)c(Cl)c3)CN(C(=O)c3ccccc3)CO2)CC1 | 75%
CC(=O)Nc1ccc(C(=O)N2CO[C@](CCN3CCC(C(N)=O)(c4ccccc4)CC3)(c3ccc(Cl)c(Cl)c3)C2)cc1 | 9%
COc1cc(C(=O)N2CO[C@](CCN3CCC(C(C)=O)(c4ccccc4)CC3)(c3ccc(Cl)c(Cl)c3)C2)cc(OC)c1OC | 83%
COc1cc(C(=O)N2CO[C@](CCN3CCC(C(=O)c4ccc(Cl)cc4)CC3)(c3ccc(Cl)c(Cl)c3)C2)cc(OC)c1OC | 97%
COc1cc(C(=O)N2CO[C@](CCN3CCC4(CC3)OCc3ccccc34)(c3ccc(Cl)c(Cl)c3)C2)cc(OC)c1OC | 98%
COc1cc(C(=O)N2CO[C@](CCN3CCN(c4ccccn4)CC3)(c3ccc(Cl)c(Cl)c3)C2)cc(OC)c1OC | 100%
COc1cc(C(=O)N2CO[C@](CCN3CCC4(CC3)CN(c3ccccc3)C(=O)O4)(c3ccc(Cl)c(Cl)c3)C2)cc(OC)c1OC | 86%
COc1cc(C(=O)N2CO[C@](CCN3CCC(NC(C)=O)(c4ccccc4)CC3)(c3ccc(Cl)c(Cl)c3)C2)cc(OC)c1OC | 100%
NC(=O)C1(c2ccccc2)CCN(CC[C@@]2(c3ccc(Cl)c(Cl)c3)CN(C(=O)c3ccccn3)CO2)CC1 | 39%
Cc1cc(C)cc(C(=O)N2CO[C@](CCN3CCC(C(N)=O)(c4ccccc4)CC3)(c3ccc(Cl)c(Cl)c3)C2)c1 | 100%
NC(=O)C1(c2ccccc2)CCN(CC[C@@]2(c3ccc(Cl)c(Cl)c3)CN(C(=O)c3cnccn3)CO2)CC1 | 23%
NC(=O)C1(c2ccccc2)CCN(CC[C@@]2(c3ccc(Cl)c(Cl)c3)CN(C(=O)c3cc4ccccc4[nH]3)CO2)CC1 | 96%
Cc1ccc(C(=O)N2CO[C@](CCN3CCC(C(N)=O)(c4ccccc4)CC3)(c3ccc(Cl)c(Cl)c3)C2)cc1 | 56%
